# targetDesc: EPHB2 (UniProt P29323)
# Sequence (P29323 whole entry, looked up): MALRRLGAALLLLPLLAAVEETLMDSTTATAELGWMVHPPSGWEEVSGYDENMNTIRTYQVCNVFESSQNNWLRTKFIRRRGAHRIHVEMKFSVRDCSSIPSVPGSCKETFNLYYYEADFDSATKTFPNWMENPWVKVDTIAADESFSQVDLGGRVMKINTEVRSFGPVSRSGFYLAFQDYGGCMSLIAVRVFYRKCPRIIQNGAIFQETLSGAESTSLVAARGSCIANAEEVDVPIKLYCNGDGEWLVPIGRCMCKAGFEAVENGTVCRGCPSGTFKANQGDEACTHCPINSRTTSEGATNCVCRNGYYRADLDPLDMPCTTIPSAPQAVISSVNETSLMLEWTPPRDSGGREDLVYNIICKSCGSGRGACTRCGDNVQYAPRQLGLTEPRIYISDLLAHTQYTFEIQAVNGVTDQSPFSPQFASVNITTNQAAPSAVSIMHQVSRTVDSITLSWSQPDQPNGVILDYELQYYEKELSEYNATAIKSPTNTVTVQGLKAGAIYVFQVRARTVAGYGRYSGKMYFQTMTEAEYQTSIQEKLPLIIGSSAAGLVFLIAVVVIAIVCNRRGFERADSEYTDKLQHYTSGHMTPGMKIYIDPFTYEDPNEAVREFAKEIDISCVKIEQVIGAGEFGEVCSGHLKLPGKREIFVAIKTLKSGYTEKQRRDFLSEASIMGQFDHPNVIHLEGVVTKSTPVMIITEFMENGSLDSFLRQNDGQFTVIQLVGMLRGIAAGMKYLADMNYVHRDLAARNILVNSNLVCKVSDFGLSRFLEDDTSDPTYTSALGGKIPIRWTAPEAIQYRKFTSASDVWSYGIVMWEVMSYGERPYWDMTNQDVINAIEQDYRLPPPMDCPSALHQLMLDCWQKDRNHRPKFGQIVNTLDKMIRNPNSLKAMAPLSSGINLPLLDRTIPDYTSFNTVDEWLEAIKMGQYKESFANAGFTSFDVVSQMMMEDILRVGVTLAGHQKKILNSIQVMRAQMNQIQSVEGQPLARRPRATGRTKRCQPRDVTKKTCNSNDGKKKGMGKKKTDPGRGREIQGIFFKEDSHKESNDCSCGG
# methodDescription: phosphorylation enrichment, bacterial display (enrichment ratio); higher = better substrate or ligand; peptides without Tyr show the background
Rule: phosphorylation enrichment under 0.5 gives not met, otherwise met.

These recorded examples may help you get a feel for the data.
seqText: KRTFEYEAEKN [DENND2B_Y396_D399E]
labelClass: not met
--
seqText: KVKPIYLHTQG [AR_Y916_F917L]
labelClass: not met
--
seqText: FQHLRYIKQLG [SAMHD1_Y146_R143H]
labelClass: not met
--
seqText: LFSGDCFRIQG [DDR2_Y740_Y740C_YF]
labelClass: met

Q. hey, is phosphorylation enrichment for this one >= 0.5? LDFPEYDGVDR [CASQ1_Y43]
A. met

Q. Quick check: does EVKEAYMGNVL [ACAT1_Y90] have phosphorylation enrichment greater than or equal to 0.5?
A. met

###

Entries and their measured phosphorylation enrichment follow.
# targetDesc: MERTK (UniProt Q12866)
# Sequence (Q12866 whole entry, looked up): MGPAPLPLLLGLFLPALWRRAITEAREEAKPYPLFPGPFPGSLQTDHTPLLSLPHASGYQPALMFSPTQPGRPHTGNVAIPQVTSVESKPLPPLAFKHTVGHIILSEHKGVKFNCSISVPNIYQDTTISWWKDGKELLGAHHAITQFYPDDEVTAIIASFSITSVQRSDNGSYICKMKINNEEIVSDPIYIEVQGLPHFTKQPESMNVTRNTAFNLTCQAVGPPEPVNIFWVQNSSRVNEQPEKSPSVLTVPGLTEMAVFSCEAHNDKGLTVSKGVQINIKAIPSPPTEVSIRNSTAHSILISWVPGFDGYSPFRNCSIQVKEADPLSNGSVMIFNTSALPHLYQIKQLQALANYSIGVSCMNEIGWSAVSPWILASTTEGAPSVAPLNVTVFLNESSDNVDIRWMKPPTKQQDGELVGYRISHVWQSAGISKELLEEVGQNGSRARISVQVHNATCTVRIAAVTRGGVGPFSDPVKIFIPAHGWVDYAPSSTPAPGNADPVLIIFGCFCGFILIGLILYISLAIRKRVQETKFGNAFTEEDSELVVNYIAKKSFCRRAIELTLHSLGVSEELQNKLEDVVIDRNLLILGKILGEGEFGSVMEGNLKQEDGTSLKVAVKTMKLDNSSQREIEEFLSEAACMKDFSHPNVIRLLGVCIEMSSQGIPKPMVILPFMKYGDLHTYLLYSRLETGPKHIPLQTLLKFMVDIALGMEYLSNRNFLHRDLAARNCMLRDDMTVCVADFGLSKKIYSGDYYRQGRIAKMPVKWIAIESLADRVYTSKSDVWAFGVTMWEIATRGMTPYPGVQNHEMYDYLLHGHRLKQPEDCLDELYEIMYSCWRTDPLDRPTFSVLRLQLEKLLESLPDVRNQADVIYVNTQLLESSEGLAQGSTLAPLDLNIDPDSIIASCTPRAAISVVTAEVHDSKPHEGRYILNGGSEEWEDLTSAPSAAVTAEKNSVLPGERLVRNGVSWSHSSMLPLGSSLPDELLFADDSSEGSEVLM
# methodDescription: phosphorylation enrichment, bacterial display (enrichment ratio); higher = better substrate or ligand; peptides without Tyr show the background

Reference set, count: 8
seqText: KTNVSYFGALD [CACNB4_Y103_C104F]
targetDesc: MERTK (UniProt Q12866)
phosphorylation enrichment: 0.426
--
seqText: AEEKEYHAEEG [EGFR_Y869_G873E]
targetDesc: MERTK (UniProt Q12866)
phosphorylation enrichment: 0.445
--
seqText: FGGTVCHSPVS [PRC1_Y511_Y511C]
targetDesc: MERTK (UniProt Q12866)
phosphorylation enrichment: 0.456
--
seqText: PGIRMYRVQYN [LRFN1_Y454_Q455R]
targetDesc: MERTK (UniProt Q12866)
phosphorylation enrichment: 0.527
--
seqText: FLGEEYVKAVG [TF_Y674_YF]
targetDesc: MERTK (UniProt Q12866)
phosphorylation enrichment: 0.412
--
seqText: SLTGAYASGIP [POM121C_Y378_T379A]
targetDesc: MERTK (UniProt Q12866)
phosphorylation enrichment: 0.436
--
seqText: ALMGLYHGQVL [HADHA_Y343]
targetDesc: MERTK (UniProt Q12866)
phosphorylation enrichment: 0.648
--
seqText: DLEKTYNTYRS [B4GALNT2_Y538_A533D]
targetDesc: MERTK (UniProt Q12866)
phosphorylation enrichment: 0.424

Q. What does the record list as phosphorylation enrichment for EEGEEYGGGGG [TUBA1A_Y451] ?
A. 0.485

Q. Please look up its phosphorylation enrichment: "LANNEYFFQVC"
A. 0.933

Q. Name the recorded phosphorylation enrichment for CPFNLYAEQFS [HGD_Y40_L44F_YF] .
A. 1.6

###

# targetDesc: FGFR3 (UniProt P22607)
# Sequence (P22607 whole entry, looked up): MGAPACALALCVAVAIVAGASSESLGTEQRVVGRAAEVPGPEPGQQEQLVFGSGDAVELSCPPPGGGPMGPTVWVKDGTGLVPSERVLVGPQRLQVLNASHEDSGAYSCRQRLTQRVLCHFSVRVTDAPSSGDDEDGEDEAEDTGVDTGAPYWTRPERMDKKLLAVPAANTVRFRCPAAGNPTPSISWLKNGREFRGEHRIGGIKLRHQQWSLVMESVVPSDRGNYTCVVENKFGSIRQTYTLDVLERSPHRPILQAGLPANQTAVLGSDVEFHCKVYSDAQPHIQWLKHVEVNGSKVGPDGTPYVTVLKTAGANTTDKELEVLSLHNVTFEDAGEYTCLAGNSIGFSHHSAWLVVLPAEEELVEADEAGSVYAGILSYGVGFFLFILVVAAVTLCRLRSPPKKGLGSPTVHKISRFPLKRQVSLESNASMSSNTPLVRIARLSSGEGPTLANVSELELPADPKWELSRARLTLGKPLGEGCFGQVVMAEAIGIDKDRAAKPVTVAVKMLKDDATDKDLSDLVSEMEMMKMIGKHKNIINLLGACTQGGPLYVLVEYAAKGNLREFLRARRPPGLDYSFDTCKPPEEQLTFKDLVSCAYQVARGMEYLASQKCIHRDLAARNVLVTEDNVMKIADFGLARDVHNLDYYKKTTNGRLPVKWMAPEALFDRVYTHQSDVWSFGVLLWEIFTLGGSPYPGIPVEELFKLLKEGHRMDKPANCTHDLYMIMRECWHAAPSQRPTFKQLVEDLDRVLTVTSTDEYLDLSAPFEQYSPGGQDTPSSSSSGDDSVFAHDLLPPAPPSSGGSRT
# methodDescription: phosphorylation enrichment, bacterial display (enrichment ratio); higher = better substrate or ligand; peptides without Tyr show the background
// reported phosphorylation enrichment per item
Lab note: jot the number down without any unit.

Below: 5 sequences and their reported phosphorylation enrichment.
seqText: YVKEPYIQSRF [HIPK4_Y175]
number: 0.528

seqText: DFPMGYPSFLA [TBCK_Y153_I151M_YF]
number: 0.49

seqText: LARNMYDKEYY [MET_Y1230_D1228N]
number: 0.569

seqText: LANNEYFFQVC
number: 9.36

seqText: HFVDEYDQTIE [KRAS_Y32_P34Q]
number: 0.852

Q. Query: phosphorylation enrichment; subject: NHFKIYNLCAE [PTEN_Y68_YF]
A. 0.647

Q. Suppose we examine the sequence CGASGYSATST [CERT1_Y143_S138C] ; what phosphorylation enrichment value has been reported?
A. 0.872

Q. # query: phosphorylation enrichment of entry IRQGHYESLKE [MTR_Y921_D919G]
A. 0.567

###

# Tested on: c-Src
# methodDescription: phosphorylation enrichment, bacterial display (enrichment ratio); higher = better substrate or ligand; peptides without Tyr show the background
Short version: phosphorylation enrichment at least 2 is label 1, less is label 0.

seqText: GHLYAYDWISI [BEST1_Y227]
labelClass: label 1

seqText: DPHECYAKVFN [ALB_Y394_D399N]
labelClass: label 0

seqText: CGASGYSATST [CERT1_Y143_S138C]
labelClass: label 0

We next turn to a different sequence, shown below.
Q. # bool: phosphorylation enrichment of VASIFYTLVIP [OR8K3_Y277] >= 2
A. label 0

###

phosphorylation enrichment reference
# targetDesc: FGFR3 (UniProt P22607)
# methodDescription: phosphorylation enrichment, bacterial display (enrichment ratio); higher = better substrate or ligand; peptides without Tyr show the background
Enter the number alone.

// known answers, use as guide
seqText: MILSAYALGGL [CPS1_Y590_R587L]
observedProperty: phosphorylation enrichment
number: 0.675

seqText: NFRNTYVNANE [KCNH2_Y475_T473N]
observedProperty: phosphorylation enrichment
number: 0.474

In the following, a different sequence is considered.
Q. What does the data say about its phosphorylation enrichment? Entry: FGSLLYKFAFK [FANCD2_Y458_YF]
A. 0.678

###

# targetDesc: FGFR3 (UniProt P22607)
# methodDescription: phosphorylation enrichment, bacterial display (enrichment ratio); higher = better substrate or ligand; peptides without Tyr show the background
Use Satisfied when the recorded phosphorylation enrichment is no lower than 0.6; use Not satisfied when it is lower.

seqText: MKGEFYRFLAE [YWHAG_Y131_D129E_YF]
labelClass: Not satisfied

Q. State whether the measured phosphorylation enrichment reaches 0.6, counting equality as reaching it, for SSPRRYTIAAL [TTR_Y125_G121S]
A. Not satisfied

###

# phosphorylation enrichment annotations
# targetDesc: Fyn (UniProt P06241)
# Sequence (P06241 whole entry, looked up): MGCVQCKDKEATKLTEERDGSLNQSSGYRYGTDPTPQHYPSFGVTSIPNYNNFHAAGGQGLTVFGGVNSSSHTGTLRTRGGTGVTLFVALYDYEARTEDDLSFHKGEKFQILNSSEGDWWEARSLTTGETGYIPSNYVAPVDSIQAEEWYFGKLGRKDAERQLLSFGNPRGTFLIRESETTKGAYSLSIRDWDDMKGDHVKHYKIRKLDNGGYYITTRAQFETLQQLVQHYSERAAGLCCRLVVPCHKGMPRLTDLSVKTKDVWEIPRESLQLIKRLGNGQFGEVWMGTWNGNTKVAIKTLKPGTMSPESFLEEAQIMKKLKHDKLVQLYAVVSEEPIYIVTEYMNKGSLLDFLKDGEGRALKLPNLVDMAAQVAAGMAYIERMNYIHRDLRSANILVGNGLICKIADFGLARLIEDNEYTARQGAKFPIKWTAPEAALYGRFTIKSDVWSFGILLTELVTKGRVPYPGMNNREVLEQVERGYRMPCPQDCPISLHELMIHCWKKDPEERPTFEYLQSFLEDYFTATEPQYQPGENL
# methodDescription: phosphorylation enrichment, bacterial display (enrichment ratio); higher = better substrate or ligand; peptides without Tyr show the background
Answer with a bare number; do not write a unit.

Q. What value of measured phosphorylation enrichment is listed for SFCFRYRCAAR [SUMF1_Y344_YF] ?
A. 0.49

Q. # input sequence: PEFMVYKPQME [CCRL2_Y170_V168M] ; wanted: its phosphorylation enrichment
A. 0.494

Q. Consider the sequence shown here: TEQDPYNNIVH [MMUT_Y364_R369H] What is its recorded phosphorylation enrichment?
A. 0.572

Q. Requested field: phosphorylation enrichment. Item: HRDSSYFWEIE [RAF1_Y340_Q335H_YF]
A. 0.579

Q. Any idea what phosphorylation enrichment was measured for VDTFWYKLLKR [EPM2A_Y86_F88L] ?
A. 0.372

Q. Query (sequence): KGYRGYSYDDI [TMEM230_Y110] ; field requested: phosphorylation enrichment
A. 0.425

Q. # get_value(readout='phosphorylation enrichment', item= TNFSLYLRSLE [MTM1_Y71_R69S_YF] )
A. 0.368

Q. Query (sequence): DPLLTYRFPPN [LMNA_Y481_K486N] ; field requested: phosphorylation enrichment
A. 0.51

Q. // lookup phosphorylation enrichment for IFGVSYGEFRF [CFTR_Y512_D513G_YF]
A. 5.32

Q. So what does the record say about phosphorylation enrichment for ALECLYHREKR [TEKT5_Y195] ?
A. 0.512

Q. For the sequence shown here, KSELAYEIFDK [MYOM2_Y1024] , give the reported phosphorylation enrichment.
A. 1.94

Q. Find the recorded phosphorylation enrichment belonging to GGFTWYCDGKK [PROS1_Y266_C265W_YF] and report it.
A. 0.328

Q. Query (sequence): IKKLIYVHLVI [JAGN1_Y42] ; field requested: phosphorylation enrichment
A. 0.496

Q. Which phosphorylation enrichment reading was recorded for the sequence DPAFGYEDFTR [SESN2_Y323_T320A] ?
A. 0.533

Q. Give its phosphorylation enrichment value. Item: FETVKYFNNER [ABCB7_Y345_YF]
A. 0.39

Q. I would be grateful if you could share the reported phosphorylation enrichment for WVFNHYRWIIW [BRCA2_Y2624_YF] .
A. 0.343

Q. I would be grateful if you could share the reported phosphorylation enrichment for FLGEEYVKAVG [TF_Y674_YF] .
A. 0.373

Q. Recorded phosphorylation enrichment for MILSAYALGGL [CPS1_Y590_R587L] , please?
A. 0.458

Q. Using the record for MSSLFYANALF [HOXB7_Y6_T9A_YF] , report its phosphorylation enrichment.
A. 0.762

Q. Look at this sequence and give its reported phosphorylation enrichment. PEADKYRLPYA [FGG_Y300_T303P]
A. 0.467

Q. For the sequence shown here, KAALSYVSEIG [BPIFB2_Y36] , give the reported phosphorylation enrichment.
A. 0.364

Q. Could you share which phosphorylation enrichment value was measured for MARDIYQASYY [LTK_Y672_R673Q] ?
A. 5.45

###

# targetDesc: SHP2-C SH2
# methodDescription: SH2 binding enrichment of the phosphorylated peptide, bacterial display (enrichment ratio); higher = better substrate or ligand; peptides without Tyr show the background
observedProperty: SH2 binding enrichment

Q. Identify the measured SH2 binding enrichment of GYYDLYGGEKF [PTPN11_Y66_D61G] for SHP2-C SH2.
A. 0.778

Q. Give recorded SH2 binding enrichment with SHP2-C SH2 for the following sequence: DQIDTYELSGG [DNM1_Y354]
A. 0.585

Q. What is its SH2 binding enrichment for SHP2-C SH2? Entry: SSFSRYIMMPN [LEF1_Y114_G113R_YF]
A. 0.728

Q. What is its SH2 binding enrichment for SHP2-C SH2? Entry: AVLSLYASGRN [ACTA1_Y145_T150N]
A. 0.976

Q. Provide the documented SH2 binding enrichment with SHP2-C SH2 as the system for IDFARYWHGND [MMP11_Y162_D166N]
A. 0.708

Q. Requested read-out SH2 binding enrichment, target or system SHP2-C SH2, entry DLEKTYNTYRS [B4GALNT2_Y538_A533D];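 note: peptide library displayed on the E. coli surface as eCPX fusions, selected cells deep-sequenced, score is each peptide's frequency after selection divided by its frequency in the input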
A. 0.511
